The measured values listed here are drawn from patent US20240002495A1.

- system: T1, biotinylated 6His tag-AviTag-linked mature human IL-33 (residues 112 to 270) (human, UniProt O95760 112-270, biotin on the AviTag portion (BirA))
- T1 construct: made in E. coli; also called biotinylated human IL-33 protein
- T1 sequence: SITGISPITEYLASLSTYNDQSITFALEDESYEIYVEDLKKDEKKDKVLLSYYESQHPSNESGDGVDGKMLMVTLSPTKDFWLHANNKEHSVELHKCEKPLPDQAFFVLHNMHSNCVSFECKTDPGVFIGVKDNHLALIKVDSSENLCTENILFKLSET
- assay.protocol: SPR, IL-33 on chip, Fab supernatant as analyte
property.name: Human IL-33 Binding Amount (RU)
Write the value in RU as a bare number.

A13-1G05 (Fab) (Fab, V domains shown, Fab secreted by E. coli, tested as culture supernatant; also called V7) VH: EVQLLESGGGLVQPGGSLRLSCAASGFTFSDYYVNWVRQAPGKGLEWVSSISRYSGYVYYADSVKGRFTISRDNSKNTLYLQMNSLRAEDTAVYYCARDIGGMDVWGQGTLVTVSS VL: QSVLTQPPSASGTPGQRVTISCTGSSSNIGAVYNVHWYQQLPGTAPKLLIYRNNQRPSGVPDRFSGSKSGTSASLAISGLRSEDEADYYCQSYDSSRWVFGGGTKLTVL ... 59
A00-0036 (Fab) (Fab, V domains shown, parental clone as Fab; also called V30; parental clone (Fab)) VH: EVQLLESGGGLVQPGGSLRLSCAASGFTFSNYYMHWVRQAPGKGLEWVSSISSSSSYIYYADSVKGRFTISRDNSKNTLYLQMNSLRAEDTAVYYCARLGTRHDAFDIWGQGTLVTVSS VL: QSVLTQPPSASGTPGQRVTISCSGSSSNIGNNAVNWYQQLPGTAPKLLIYASNMRRLGVPDRFSGSKSGTSASLAISGLRSEDEADYYCAAWDDSQKAVVFGGGTKLTVL ... 78
A25-3G05 (Fab) (Fab, V domains shown, Fab secreted by E. coli, tested as culture supernatant; also called V16) VH: EVQLLESGGGLVQPGGSLRLSCAASGFTFSHYYMHWVRQAPGKGLEWVSSISALSSYIYYADSVRGRFTISRDNSKNTLYLQMNSLRAEDTAVYYCARLATRRDAFDIWGQGTLVTVSS VL: QSVLTQPPSASGTPGQRVTISCSGSSSNIGNNAVNWYQQLPGTAPKLLIYASNMRGLGVPDRFSGSKSGTSASLAISGLRSEDEADYYCGAWDDSQKVFVFGGGTKLTVL ... 135
A00-0070 (Fab) (Fab, V domains shown, parental clone as Fab; also called V29; parental clone (Fab)) VH: EVQLLESGGGLVQPGGSLRLSCAASGFTFSDYYMNWVRQAPGKGLEWVSSISSSSSYIYYADSVKGRFTISRDNSKNTLYLQMNSLRAEDTAVYYCARDIGGMDVWGQGTLVTVSS VL: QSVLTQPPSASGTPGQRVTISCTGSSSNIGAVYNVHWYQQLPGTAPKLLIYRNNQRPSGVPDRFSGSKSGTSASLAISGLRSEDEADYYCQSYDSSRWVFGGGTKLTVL ... 571
A25-2D01 (Fab) (Fab, V domains shown, Fab secreted by E. coli, tested as culture supernatant; also called V9) VH: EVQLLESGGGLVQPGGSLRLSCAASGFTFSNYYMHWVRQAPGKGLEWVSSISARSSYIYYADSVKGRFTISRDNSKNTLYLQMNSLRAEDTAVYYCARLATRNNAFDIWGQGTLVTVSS VL: QSVLTQPPSASGTPGQRVTISCSGSSSNIGRNAVNWYQQLPGTAPKLLIYASNMRVIGVPDRFSGSKSGTSASLAISGLRSEDEADYYCAAWDDSQKAWVFGGGTKLTVL ... 950

// query Note Human IL-33 Binding Amount (RU) for the binder shown: A25-2C06 (Fab) (Fab, V domains shown, Fab secreted by E. coli, tested as culture supernatant; also called V12) VH: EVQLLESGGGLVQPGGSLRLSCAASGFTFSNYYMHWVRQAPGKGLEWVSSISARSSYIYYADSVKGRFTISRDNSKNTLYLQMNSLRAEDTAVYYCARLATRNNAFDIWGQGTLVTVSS VL: QSVLTQPPSASGTPGQRVTISCSGSSSNIGRNAVNWYQQLPGTAPKLLIYASNMRVIGVPDRFSGSKSGTSASLAISGLRSEDEADYYCGAWDDSQKRYVFGGGTKLTVL
// result 480

// query Please give measured Human IL-33 Binding Amount (RU) of the following entry: A25-2C02 (Fab) (Fab, V domains shown, Fab secreted by E. coli, tested as culture supernatant; also called V15) VH: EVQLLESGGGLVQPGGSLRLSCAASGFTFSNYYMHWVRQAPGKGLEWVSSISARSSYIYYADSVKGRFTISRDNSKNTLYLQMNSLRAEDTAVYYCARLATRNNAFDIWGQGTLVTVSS VL: QSVLTQPPSASGTPGQRVTISCSGSSSNIGRNAVNWYQQLPGTAPKLLIYASNMRVSGVPDRFSGSKSGTSASLAISGLRSEDEADYYCWAWDDSQKVGVFGGGTKLTVL
// result 930

// query // fetch Human IL-33 Binding Amount (RU) given entry A26-2A05 (Fab) (Fab, V domains shown, Fab secreted by E. coli, tested as culture supernatant; also called V19) VH: EVQLLESGGGLVQPGGSLRLSCAASGFTFSNYYMHWVRQAPGKGLEWVSSISARSSYIYYADSVKGRFTISRDNSKNTLYLQMNSLRAEDTAVYYCARLATRHGAFDIWGQGTLVTVSS VL: QSVLTQPPSASGTPGQRVTISCSGSSSNIGNNAVNWYQQLPGTAPKLLIYASNMRRMGVPDRFSGSKSGTSASLAISGLRSEDEADYYCAAWDDSQKAFVFGGGTKLTVL
// result 153

// query Specify reported Human IL-33 Binding Amount (RU) for the binder shown: A12-1E04 (Fab) (Fab, V domains shown, Fab secreted by E. coli, tested as culture supernatant; also called V2) VH: EVQLLESGGGLVQPGGSLRLSCAASGFTFSDYYMNWVRQAPGKGLEWVSSISRYSGYVYYADSVKGRFTISRDNSKNTLYLQMNSLRAEDTAVYYCARDIGGMDVWGQGTLVTVSS VL: QSVLTQPPSASGTPGQRVTISCTGSSSNIGAVYDVHWYQQLPGTAPKLLIYRNNQRPSGVPDRFSGSKSGTSASLAISGLRSEDEADYYCQSYDSSRWVFGGGTKLTVL
// result 414

// query Complete the entry with Human IL-33 Binding Amount (RU) for A25-2C07 (Fab) (Fab, V domains shown, Fab secreted by E. coli, tested as culture supernatant; also called V13) VH: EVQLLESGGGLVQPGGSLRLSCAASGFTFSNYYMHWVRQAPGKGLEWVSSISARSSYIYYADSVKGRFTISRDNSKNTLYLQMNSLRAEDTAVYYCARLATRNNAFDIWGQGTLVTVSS VL: QSVLTQPPSASGTPGQRVTISCSGSSSNIGNNAVNWYQQLPGTAPKLLIYASNMRGSGVPDRFSGSKSGTSASLAISGLRSEDEADYYCAAWDDSQKGQVFGGGTKLTVL
// result 334
